Tested on: Zymoseptoria tritici
Assay: Test E: wheat leaf blotch, preventive spray on wheat seedlings
Conditions: 10 ppm; wheat leaf blotch; 100 = 100% disease control, 0 = no control
Catalogue of Test E rating (% disease control) readings, one per entry.
Report the figure in % without appending any unit label.

>>> df
                                   compound                    measurementtype  measured
0  OC(Cn1cncn1)(C1=NOC(COc2ccc(Cl)cn2)C1)c1ccc(Cl)cc1 (single isomer, unassigned) [Compound 164]  Test E rating (% disease control)        96
1  OC(Cn1cncn1)(C1=NOC(Cn2ccc(-c3ccc(C(F)(F)F)cc3)n2)C1)c1ccc(Cl)cc1 (single isomer, unassigned) [Compound 68]  Test E rating (% disease control)         2
2  CC(C)(C)CC(O)(Cn1cncn1)C1=NOC(COc2ccc(Cl)cc2)C1 (single isomer, unassigned) [Compound 172]  Test E rating (% disease control)         4
3  OC(Cn1cncn1)(C1=NOC(Cc2ccc(Br)cc2)C1)c1ccc(Cl)cc1 (single isomer, unassigned) [Compound 55]  Test E rating (% disease control)         2
4  OC(Cc1ccc(Cl)cc1)(Cn1cncn1)C1=NOC(c2ccc(Cl)cc2)C1 (single isomer, unassigned) [Compound 94]  Test E rating (% disease control)         0

Moving on to the next compound.
Just so you know, measured Test E rating (% disease control) for CC(C)(C)CC(O)(Cn1cncn1)C1=NOC(c2ccc(Cl)cc2)C1 (single isomer, unassigned) [Compound 138] came out at 0
